# target.system: CDK7 (Homo sapiens, UniProt P50613)
# Sequence (P50613 whole entry): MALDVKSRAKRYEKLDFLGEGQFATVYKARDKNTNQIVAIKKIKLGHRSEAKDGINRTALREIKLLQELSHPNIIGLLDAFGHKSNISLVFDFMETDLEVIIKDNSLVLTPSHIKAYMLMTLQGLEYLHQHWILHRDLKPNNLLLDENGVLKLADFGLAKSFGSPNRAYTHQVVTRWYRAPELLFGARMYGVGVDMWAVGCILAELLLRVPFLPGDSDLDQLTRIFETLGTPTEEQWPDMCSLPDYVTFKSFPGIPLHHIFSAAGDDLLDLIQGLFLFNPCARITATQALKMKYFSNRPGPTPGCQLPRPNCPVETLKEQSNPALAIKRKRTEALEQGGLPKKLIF
# Sequence (P51946 whole entry partner): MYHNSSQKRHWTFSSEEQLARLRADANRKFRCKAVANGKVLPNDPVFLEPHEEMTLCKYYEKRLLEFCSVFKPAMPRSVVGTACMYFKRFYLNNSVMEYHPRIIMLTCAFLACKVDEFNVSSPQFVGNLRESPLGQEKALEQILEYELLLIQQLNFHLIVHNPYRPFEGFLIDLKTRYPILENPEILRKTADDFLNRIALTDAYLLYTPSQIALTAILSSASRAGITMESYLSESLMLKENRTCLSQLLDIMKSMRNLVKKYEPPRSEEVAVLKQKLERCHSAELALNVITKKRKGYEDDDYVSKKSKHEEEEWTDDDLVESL
# Sequence (P51948 whole entry partner): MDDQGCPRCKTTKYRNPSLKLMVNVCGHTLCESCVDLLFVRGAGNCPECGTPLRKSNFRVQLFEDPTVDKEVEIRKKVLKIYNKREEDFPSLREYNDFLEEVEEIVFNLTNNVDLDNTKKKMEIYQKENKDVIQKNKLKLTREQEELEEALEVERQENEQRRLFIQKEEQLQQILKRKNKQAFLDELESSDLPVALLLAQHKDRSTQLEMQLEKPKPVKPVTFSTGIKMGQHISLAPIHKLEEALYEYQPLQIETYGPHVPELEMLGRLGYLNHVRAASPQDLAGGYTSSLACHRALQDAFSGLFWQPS
pIC50: −log10 of the molar value.
Recorded pIC50 by entry
property.name: pIC50

INSERT INTO results (compound, target_system, obs_value) VALUES
  ('C=CC(=O)Nc1ccc(CNC(=O)[C@H]2C[C@H](Nc3ncc(Cl)c(-c4c[nH]c5ccccc45)n3)CN(C)C2)cc1 (relative stereo)', 'CDK7 (Homo sapiens, UniProt P50613)', '6.00 to 7.00'),
  ('O=C(/C=C/CNC(=O)C(F)(F)F)Nc1ccc(CN2CCC(Nc3ncc(Cl)c(-c4c[nH]c5ccccc45)n3)CC2)cc1', 'CDK7 (Homo sapiens, UniProt P50613)', '6.00 to 7.00'),
  ('CN1CCN(C/C=C/C(=O)Nc2ccc(C(=O)N3CC[C@@H](Nc4ncc(C#N)c(-c5c[nH]c6ccccc56)n4)C3)cc2)CC1', 'CDK7 (Homo sapiens, UniProt P50613)', '> 7.00'),
  ('N#Cc1cnc(N[C@@H]2CCN(C(=O)c3ccc(NC(=O)/C=C/CN4CCOCC4)cc3)C2)nc1-c1c[nH]c2ccccc12', 'CDK7 (Homo sapiens, UniProt P50613)', '> 7.00'),
  ('COc1ccc(Cn2c(-c3ccc(NC(=O)/C=C/CN(C)C)cc3)nc3cc(Nc4ncc(Cl)c(-c5c[nH]c6ccccc56)n4)ccc32)cc1', 'CDK7 (Homo sapiens, UniProt P50613)', '6.00 to 7.00'),
  ('C=CC(=O)Nc1ccc(CNC(=O)[C@H]2CNCC(Nc3ncc(Cl)c(-c4c[nH]c5ccccc45)n3)C2)cc1 (mixture of isomers)', 'CDK7 (Homo sapiens, UniProt P50613)', '> 7.00'),
  ('Nc1ccc(C(=O)N2CC[C@@H](Nc3ncc(Cl)c(-c4c[nH]c5ccccc45)n3)C2)cc1', 'CDK7 (Homo sapiens, UniProt P50613)', '> 7.00'),
  ('Nc1ccc(C(=O)N2CC[C@H](Nc3ncc(Cl)c(-c4c[nH]c5ccccc45)n3)C2)cc1', 'CDK7 (Homo sapiens, UniProt P50613)', '6.00 to 7.00'),
  ('CN(C)C/C=C/C(=O)Nc1ccc(C(=O)N2CC[C@@H](Nc3ncc(C#N)c(-c4c[nH]c5ccccc45)n3)C2)cc1', 'CDK7 (Homo sapiens, UniProt P50613)', '> 7.00'),
  ('Cc1noc(C)c1-c1nc(N[C@H]2CC[C@@H](NC(=O)c3ccc(NC(=O)/C=C/CN(C)C)cc3)C2)ncc1Cl (racemic)', 'CDK7 (Homo sapiens, UniProt P50613)', '6.00 to 7.00'),
  ('CN(C/C=C/C(=O)Nc1ccc(C(=O)N2CC[C@@H](Nc3ncc(C#N)c(-c4c[nH]c5ccccc45)n3)C2)cc1)CCO', 'CDK7 (Homo sapiens, UniProt P50613)', '> 7.00'),
  ('Cc1cc(C(=O)N2CCC(Nc3ncc(Cl)c(-c4c[nH]c5ccccc45)n3)CC2)ccc1NC(=O)/C=C/CN(C)C', 'CDK7 (Homo sapiens, UniProt P50613)', '> 7.00'),
  ('CN(C/C=C/C(=O)Nc1ccc(CN2CCC(Nc3ncc(Cl)c(-c4c[nH]c5ccccc45)n3)CC2)cc1)CC(O)CO (stereo not shown)', 'CDK7 (Homo sapiens, UniProt P50613)', '> 7.00');

----------
# System: MCF-7
# assay.comment: Inhibition of cell proliferation, CellTiter-Glo, 72 hour
# Assay type: cell-based
# reported.conditions: Homo sapiens, MCF7, Breast Cancer/Breast cell line
Recorded IC50 by entry
property.name: IC50

INSERT INTO measurements (compound, target_system, obs_value) VALUES
  ('CN(C)C/C=C/C(=O)Nc1ccc(C(=O)N2CC[C@H](Nc3ncc(Cl)c(-c4c[nH]c5ccccc45)n3)C2)cc1', 'MCF-7', '> 5000 nM'),
  ('CN1CC[C@H](c2c(O)cc(O)c3c(=O)cc(-c4ccccc4Cl)oc23)[C@H](O)C1 [Flavopiridol, flavopiridol, reference compound]', 'MCF-7', '500 to 5000 nM'),
  ('CN(C)C/C=C/C(=O)Nc1ccc(C(=O)N2CCC(Nc3ncc(Cl)c(-c4c[nH]c5ccccc45)n3)CC2)cc1', 'MCF-7', '< 500 nM');

----------
# System: Jurkat
# assay.comment: Inhibition of cell proliferation, CellTiter-Glo, 72 hour
# Format: cell-based
# reported.conditions: Blood cancer cell line; 72 hour; read-out: Inhibition of Proliferation of Jurkat Cells
pIC50: −log10 of the molar value.
property.name: pIC50

INSERT INTO measurements (molecule, obs_value) VALUES
  ('CN(C)C/C=C/C(=O)Nc1ccc(C(=O)N[C@@H]2CC[C@H](Nc3ncc(Cl)c(-c4cc[nH]n4)n3)C2)cc1.CN(C)C/C=C/C(=O)Nc1ccc(C(=O)N[C@H]2CC[C@@H](Nc3ncc(Cl)c(-c4cc[nH]n4)n3)C2)cc1 (mixture of isomers)', '< 5.30'),
  ('C=CC(=O)Nc1ccc(CNC(=O)[C@H]2C[C@H](Nc3ncc(Cl)c(-c4c[nH]c5ccccc45)n3)CN(C)C2)cc1 (relative stereo)', '5.30 to 6.30'),
  ('CN(C)CC=CC(=O)Nc1ccc(C(=O)NC2CNCC(Nc3ncc(Cl)c(-c4c[nH]c5ccccc45)n3)C2)cc1 (racemic)', '> 6.30'),
  ('C=CC(=O)Nc1ccc(CNC(=O)[C@@H]2CNC[C@H](Nc3ncc(Cl)c(-c4c[nH]c5ccccc45)n3)C2)cc1 (relative stereo)', '5.30 to 6.30');

----------
# target.system: CDK7 (Homo sapiens)
pIC50: −log10 of the molar value.
Recorded pIC50 by entry
property.name: pIC50

INSERT INTO results (molecule, obs_value) VALUES
  ('N#Cc1cnc(N[C@@H]2CCN(C(=O)c3ccc(NC(=O)/C=C/Cn4ccnc4)cc3)C2)nc1-c1c[nH]c2ccccc12', '> 7.00'),
  ('CN(C)C/C=C/C(=O)Nc1ccc(C(=O)N2CC[C@@H](Nc3ncc(Cl)c(-c4c[nH]c5ccccc45)n3)C2)cc1', '> 7.00'),
  ('C=CC(=O)Nc1ccc(NC(=O)[C@@H]2C[C@@H](Nc3ncc(Cl)c(-c4c[nH]c5ccccc45)n3)CN(C)C2)cc1 (relative stereo)', '6.00 to 7.00'),
  ('CC(C)(CNC(=O)c1ccc(NC(=O)/C=C/CO)cc1)CNc1ncc(Cl)c(-c2c[nH]c3ccccc23)n1', '< 6.00'),
  ('CN(C)C/C=C/C(=O)Nc1ccc(C(=O)N[C@@H]2CC[C@H](Nc3ncc(Cl)c(-c4c[nH]c5ccccc45)n3)C2)cc1', '> 7.00'),
  ('C=CC(=O)Nc1ccc(NC(=O)[C@H]2CNCC(Nc3ncc(Cl)c(-c4c[nH]c5ccccc45)n3)C2)cc1 (mixture of isomers)', '> 7.00');

----------
Quick record: IC50, CDK7 (Homo sapiens).
property.name: IC50

INSERT INTO results (compound, target_system, property_name, obs_value) VALUES
  ('CN(C)C/C=C/C(=O)Nc1ccc(C(=O)N2CCC(Nc3ncc(Cl)c(-c4c[nH]c5ccccc45)n3)CC2)cc1', 'CDK7 (Homo sapiens)', 'IC50', '< 100 nM'),
  ('CN(C)C/C=C/C(=O)Nc1ccc(C(=O)N2CCC(Nc3ncc(Cl)c(-c4cc[nH]n4)n3)CC2)cc1', 'CDK7 (Homo sapiens)', 'IC50', '> 1000 nM'),
  ('N#Cc1cnc(N[C@@H]2CCN(C(=O)c3ccc(NC(=O)/C=C/CN4CCCC4)cc3)C2)nc1-c1c[nH]c2ccccc12', 'CDK7 (Homo sapiens)', 'IC50', '< 100 nM'),
  ('N#Cc1cnc(N[C@@H]2CCN(C(=O)c3ccc(N)cc3)C2)nc1-c1c[nH]c2ccccc12', 'CDK7 (Homo sapiens)', 'IC50', '< 100 nM'),
  ('CN(C)C/C=C/C(=O)Nc1ccc(C(=O)N2CCC(Nc3ncc(Cl)c(-c4cccnc4)n3)CC2)cc1', 'CDK7 (Homo sapiens)', 'IC50', '100 to 1000 nM'),
  ('CNC/C=C/C(=O)Nc1ccc(CN2CCC(Nc3ncc(Cl)c(-c4c[nH]c5ccccc45)n3)CC2)cc1', 'CDK7 (Homo sapiens)', 'IC50', '< 100 nM'),
  ('CN(C)C/C=C/C(=O)Nc1ccc(S(=O)(=O)N2CC[C@@H](Nc3ncc(Cl)c(-c4c[nH]c5ccccc45)n3)C2)cc1', 'CDK7 (Homo sapiens)', 'IC50', '< 100 nM'),
  ('CN(C)C/C=C/C(=O)Nc1ccc(C(=O)N2CCC(Nc3ncc(Cl)c(-c4c[nH]c5ccccc45)n3)CC2)cc1F', 'CDK7 (Homo sapiens)', 'IC50', '< 100 nM'),
  ('Nc1ccc(C(=O)N2CCC(Nc3ncc(Cl)c(-c4c[nH]c5ccccc45)n3)CC2)c(F)c1', 'CDK7 (Homo sapiens)', 'IC50', '100 to 1000 nM'),
  ('NCC(=O)Nc1cccc(Nc2ncc(Cl)c(-c3c[nH]c4ccccc34)n2)c1', 'CDK7 (Homo sapiens)', 'IC50', '< 100 nM'),
  ('C=CC(=O)Nc1ccc(CNC(=O)[C@@H]2CNC[C@H](Nc3ncc(Cl)c(-c4c[nH]c5ccccc45)n3)C2)cc1 (relative stereo)', 'CDK7 (Homo sapiens)', 'IC50', '< 100 nM'),
  ('CC(=O)Nc1ccc(CN2CCC(Nc3ncc(Cl)c(-c4c[nH]c5ccccc45)n3)CC2)cc1', 'CDK7 (Homo sapiens)', 'IC50', '100 to 1000 nM'),
  ('Cc1[nH]c2ccccc2c1-c1nc(N[C@@H]2CC[C@H](NC(=O)c3ccc(NC(=O)/C=C/CN(C)C)cc3)C2)ncc1Cl (racemic)', 'CDK7 (Homo sapiens)', 'IC50', '< 100 nM'),
  ('Nc1ccc(C(=O)N2[C@@H]3CC[C@H]2C[C@@H](Nc2ncc(Cl)c(-c4c[nH]c5ccccc45)n2)C3)cc1', 'CDK7 (Homo sapiens)', 'IC50', '> 1000 nM');
